tested on: RAW-Dual; assay: NF-kB SEAP reporter activity, fold change vs agonist alone; higher = enhanced NF-kB activity; details: library stock concentration (final ~1000-fold dilution): 10 mM; cytotoxicity flag (confluency mask): not cytotoxic; agonist: MPLA (TLR4) […]
Over roughly 2,900 compounds, “NF-kB SEAP reporter activity, fold change vs agonist alone” has its median near 0.99; the highest 2% begin near 2.6. The sample as a whole holds a higher share of the highest values than the screen did.
NF-kB SEAP reporter activity reference
Number only, please.

Some compounds with recorded NF-kB SEAP reporter activity:
compound	NF-kB SEAP reporter activity
CC1(C)SC2C(NC(=O)C(N)c3ccccc3)C(=O)N2C1C(=O)OCOC(=O)C1N2C(=O)CC2S(=O)(=O)C1(C)C (stereo unspecified)	1.07
CC(NC(=O)CCC(F)(F)F)C(=O)NC1C(=O)N(CCO)c2ncccc2-c2ccccc21 (stereo unspecified)	1.06
COc1ccc(-c2nc3cc(C4=NNC(=O)CC4C)ccc3[nH]2)cc1 (stereo unspecified)	1.34
Cc1nc(N)sc1-c1ccnc(Nc2ccc(N3CCOCC3)cc2)n1	1.39
CNCCC(Oc1ccccc1C)c1ccccc1.Cl (stereo unspecified)	1.15
O=C1OC(=O)C2C3CCC(O3)C12 (stereo unspecified)	2.03
CCOC(=O)C(CCc1ccccc1)NC1CCc2ccccc2N(CC(=O)O)C1=O.Cl (stereo unspecified)	0.958
Cc1cc2c(C(=O)NCC(C)c3ccccc3)c(O)c(O)cc2c(O)c1-c1c(C)cc2c(C(=O)NCC(C)c3ccccc3)c(O)c(O)cc2c1O (stereo unspecified)	2.27

// next entry
Name the reported NF-kB SEAP reporter activity value associated with the compound Nc1ccc(-c2cccc(C(=O)Nc3cnc4nc(N5CCOCC5)oc4c3)n2)cn1
1.08

---

tested on: RAW-Dual; assay: NF-kB SEAP reporter activity, fold change vs agonist alone; higher = enhanced NF-kB activity; settings: library stock concentration (final ~1000-fold dilution): 10 mM; cytotoxicity flag (confluency mask): cytotoxic (confluency <70% of control); agonist: Imiquimod (TLR7) […]
Over roughly 2,900 compounds, “NF-kB SEAP reporter activity, fold change vs agonist alone” has its median near 0.99; the highest 2% begin near 2.6. The entries come from a sample that favours the highest values as a whole.
NF-kB SEAP reporter activity vs 2: less than gives 1; not less than gives -1.

Study these solved cases before continuing.
molecule	assigned-label
CCC(=O)Nc1cccc(Oc2nc(Nc3ccc(N4CCN(C)CC4)cc3OC)ncc2Cl)c1	1
Cc1ccc(NC(=O)c2ccc(CN3CCC(N(C)C)C3)c(C(F)(F)F)c2)cc1Nc1nccc(-c2cncnc2)n1 (stereo unspecified)	-1
COc1ncc(-c2cc(-c3ncc(CN4CC(C)OC(C)C4)o3)c3cn[nH]c3c2)cc1NS(C)(=O)=O (stereo unspecified)	1

Lab log: compare recorded NF-kB SEAP reporter activity with 2; is it strictly lower for COCCOc1ccc2c(c1)ncn2-c1ccc2cccc(N3CCC(N)CC3)c2n1 ?
-1

Lab log: compare recorded NF-kB SEAP reporter activity with 2; is it strictly lower for COc1cc(C(=O)NC2CCN(C)CC2)ccc1Nc1ncc2c(n1)N(C1CCCC1)CC(F)(F)C(=O)N2C ?
1

Lab log: compare recorded NF-kB SEAP reporter activity with 2; is it strictly lower for O=C(Oc1cccc(F)c1OC(=O)c1cccc(O)c1)c1cccc(O)c1 ?
1

---

test system: RAW-Dual; assay: NF-kB SEAP reporter activity, fold change vs agonist alone; cytotoxicity flag (confluency mask): not cytotoxic; higher = enhanced NF-kB activity; settings: agonist: Pam2CSK4 (TLR2/6) 0.1 ug/mL
Over roughly 2,900 compounds, “NF-kB SEAP reporter activity, fold change vs agonist alone” has its median near 0.99; the highest 2% begin near 2.6. Shown is part of a subset that was picked to be rich in the highest values.
Classification field: enter label 1 for NF-kB SEAP reporter activity values not below 0.9, label 0 for values below it.

molecule	assigned-label
Cc1cnc(NC(=O)Nc2cc(Br)c(C)cc2OCC2CNCCO2)cn1 (stereo not given) (library stock concentration (final ~1000-fold dilution): 10 mM)	label 0
O=c1cc(-c2ccc(O)c(O)c2O)oc2ccccc12 (library stock concentration (final ~1000-fold dilution): 10 mM)	label 1
NNC(=O)c1ccncc1 (library stock concentration (final ~1000-fold dilution): 10 mM)	label 1
CN(C/C=C/C#CC(C)(C)C)Cc1cccc2ccccc12 (library stock concentration (final ~1000-fold dilution): 10 mM)	label 1

Record O=S(=O)(NCCSSCCNS(=O)(=O)c1cc(Cl)ccc1Cl)c1cc(Cl)ccc1Cl (library stock concentration (final ~1000-fold dilution): 10 mM) ; criterion: NF-kB SEAP reporter activity no lower than 0.9. Met?
label 0

Record CC(C)NC(=O)C1CCC(n2c(=NC(=O)c3ccc(F)cc3)[nH]c3ccc(CN4CCC(C(C)(C)O)CC4)cc32)CC1 (stereo not given) (library stock concentration (final ~1000-fold dilution): 10 mM) ; criterion: NF-kB SEAP reporter activity no lower than 0.9. Met?
label 1

Record COc1ccc(CCCOC(Cn2ccnc2)c2ccc(OC)cc2)cc1.Cl (stereo not given) (library stock concentration (final ~1000-fold dilution): 10 mM) ; criterion: NF-kB SEAP reporter activity no lower than 0.9. Met?
label 0

Record O=[N+]([O-])c1ccc(Nc2ccccc2-c2ccccc2)c2nonc12 (library stock concentration (final ~1000-fold dilution): 10 mM) ; criterion: NF-kB SEAP reporter activity no lower than 0.9. Met?
label 0

---

test system: RAW-Dual; assay: NF-kB SEAP reporter activity, fold change vs agonist alone; higher = enhanced NF-kB activity; details: library stock concentration (final ~1000-fold dilution): 10 mM; cytotoxicity flag (confluency mask): not cytotoxic; agonist: Imiquimod (TLR7) […]
The full ranking holds about 2,900 compounds; the median of “NF-kB SEAP reporter activity, fold change vs agonist alone” is about 0.99, and the highest 2% start at about 2.6. The entries come from a sample that favours the highest values as a whole.
measurement-type: NF-kB SEAP reporter activity
Number only, please.

molecule	measurement-type	value-observed
COCCNCc1ccc(-c2cc3nccc(Oc4ccc(NC(=O)C5(C(=O)Nc6ccc(F)cc6)CC5)cc4F)c3s2)nc1	NF-kB SEAP reporter activity	0.327
CC#CC(=O)N1CCCC1c1nc(-c2ccc(C(=O)Nc3ccccn3)cc2)c2c(N)nccn12 (stereo not drawn)	NF-kB SEAP reporter activity	0.862

Write down the reported NF-kB SEAP reporter activity of CC(C)(C)OC(=O)NC1CCCCC/C=C\C2CC2(C(=O)NS(=O)(=O)C2CC2)NC(=O)C2CC(OC(=O)N3Cc4cccc(F)c4C3)CN2C1=O (stereo not drawn) , test system: RAW-Dual.
0.902

Write down the reported NF-kB SEAP reporter activity of CC(C)NCC(O)COc1ccc(COCCOC(C)C)cc1.O=C(O)/C=C/C(=O)O (stereo not drawn) , test system: RAW-Dual.
0.869

Write down the reported NF-kB SEAP reporter activity of CCCC(NC1CCc2cc(F)cc(F)c2C1)C(=O)Nc1cn(C(C)(C)CNCC(C)(C)C)cn1 (stereo not drawn) , test system: RAW-Dual.
0.373

Write down the reported NF-kB SEAP reporter activity of CC1CCN(C(=O)CC#N)CC1N(C)c1ncnc2[nH]ccc12 (stereo not drawn) , test system: RAW-Dual.
1.31

Write down the reported NF-kB SEAP reporter activity of Cn1cc(-c2cc(Oc3cc(F)c(NC(=O)C4(C(=O)Nc5ccccc5)CC4)cc3F)ccn2)cn1 , test system: RAW-Dual.
0.974

---

tested on: RAW-Dual; experiment: NF-kB SEAP reporter activity, fold change vs agonist alone; cytotoxicity flag (confluency mask): not cytotoxic; higher = enhanced NF-kB activity; conditions: agonist: Pam3CSK4 (TLR2/1) 0.1 ug/mL
Whole data set: some 2,900 compounds, median “NF-kB SEAP reporter activity, fold change vs agonist alone” near 0.99, cut for the highest 2% near 2.6. This excerpt belongs to a sample that is enriched for the highest values.
Classification field: enter YES for NF-kB SEAP reporter activity values not below 0.9, NO for values below it.

Study these solved cases before continuing.
molecule	assigned-label
C=C1CC23CCC4C(C)(C(=O)O)CCCC4(C)C2CCC1C3 (configuration not stated) (library stock concentration (final ~1000-fold dilution): 10 mM)	NO
CC(C)(C)OC(=O)NC1CCCCC/C=C\C2CC2(C(=O)NS(=O)(=O)C2CC2)NC(=O)C2CC(OC(=O)N3Cc4cccc(F)c4C3)CN2C1=O (configuration not stated) (library stock concentration (final ~1000-fold dilution): 10 mM)	YES
O=C(Cc1ccccc1)Nc1nnc(NC2CCN(c3nnc(NC(=O)Cc4ccccc4)s3)CC2)s1 (library stock concentration (final ~1000-fold dilution): 10 mM)	NO
COc1cc(-c2oc3cc(O)cc(O)c3c(=O)c2OC2OC(CO)C(O)C(O)C2OC2OC(C)C(O)C(O)C2O)ccc1O (configuration not stated) (library stock concentration (final ~1000-fold dilution): 10 mM)	YES
COc1ccc(Cn2c3ncnc4c(ncn4Cc4ccc(OC)cc4)c-3nc2=O)cc1 (library stock concentration (final ~1000-fold dilution): 10 mM)	NO

Record CC(C)OC(=O)CCC/C=C\CC1C(O)CC(O)C1CCC(O)CCc1ccccc1 (configuration not stated) (library stock concentration (final ~1000-fold dilution): 10 mM) ; criterion: NF-kB SEAP reporter activity no lower than 0.9. Met?
YES

Record N#Cc1cnc(Nc2cc(NCC3CNCCO3)c(C(F)(F)F)cn2)cn1 (configuration not stated) (library stock concentration (final ~1000-fold dilution): 10 mM) ; criterion: NF-kB SEAP reporter activity no lower than 0.9. Met?
YES

Record O=c1cc(-c2ccc(O)cc2)oc2c(C3OC(CO)C(O)C(O)C3O)c(O)cc(O)c12 (configuration not stated) (library stock concentration (final ~1000-fold dilution): 10 mM) ; criterion: NF-kB SEAP reporter activity no lower than 0.9. Met?
YES

Record C=CC(C)(/C=C/c1ccc(O)cc1)CCC=C(C)C (configuration not stated) (library stock concentration (final ~1000-fold dilution): 10 mM) ; criterion: NF-kB SEAP reporter activity no lower than 0.9. Met?
YES

Record C=CC(=O)Nc1cccc(Nc2nc(Nc3ccc(NC4CN(CCF)C4)cc3OC)ncc2C(F)(F)F)c1 (library stock concentration (final ~1000-fold dilution): 10 mM) ; criterion: NF-kB SEAP reporter activity no lower than 0.9. Met?
NO
